Experiment: soluble fraction after stress (log2 fold change); higher = more stays soluble; pooled small domains, quantitative proteomics;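 note: 20 min heating vs room temperature control held 20 min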
Details: stress: 75 degC
Rule: soluble fraction (log2) under -1 gives label 0, otherwise label 1.

Worked set:
HMGGKTAVVTGSLVNVRKGPGTGNALVGQVARGDELPVLGQDGDWYQIKLANGSNGWVAGWLVSLKDAVP label 1
HMNDVEAIDDALKDLHKVSPDLAALVEMKFFGGMTEPEISEILGVSERTVRREWEKARAALLVLLE label 0
HMDNEVTIAVQVNGKLRDKLIVALDTPNEKIEQLALALPKVIQNTSGLTVRKVIVIPNRLVNIVA label 0
HMADRLITLSEVASLLRVSRHTVQAWISPSSPNHRPEFAIMARHAGRRTVFIEAEVTAWLDQRRG label 0
HMGPLTMGQRIVRLRTQAGLSQDALAEQLGVSRQSVSKWETDGSVPDLDRLVKLSKVFGVTLDELVKG label 1
HMDIGTYTVTASALNIRQYPTASSAKTGSYPNGSIVTIYEYLTDGSWGRTDDGWISMNYVSRRY label 0
HMISAEPVGEDLFKVAFPFLGGSTVFEKTIEQFIEEHPSKRIDHIYTVPNPLRLKKADALIFYIITEEK label 0
HMHMELHEKIRLARELNKWSQEEVAEKLEMSPSGYAKIERGETALNIPRLEQIAEIFNIDIWELVKA label 0

Decide: is the reported value of soluble fraction (log2) for HMDAMGAVGIARAFISAGERGGDISDGLEHMHGKLLRLSSLMYTRSGKKMAARRHELLSSFVQALEEEIK equal to or greater than -1?
label 1

Decide: is the reported value of soluble fraction (log2) for HMQDRDKNVPAGKELLDNEIARLNMSLKQVEQFALPRYNLKTLEDLYSGIGSGDIRLNHLINFLQSKLI equal to or greater than -1?
label 1

Decide: is the reported value of soluble fraction (log2) for HMTDEEFSRIVKYTAVRYGINLYHKKVMVEGRLSNYLAANGFKSYTEYMDRVEADYTGQEAQNLINILTT equal to or greater than -1?
label 0

Decide: is the reported value of soluble fraction (log2) for HMSLEDMILSLSSRIRRGESLHFRELLVAIETKSGMVTIFMAVLELLKQQVMEMRYEDDDIIFT equal to or greater than -1?
label 0

Decide: is the reported value of soluble fraction (log2) for HMINVLTPKQIEATTIAVKYGYYENPRTVSMRELSEISGIARSTLQEHLSKAEAALMILAAKSQL equal to or greater than -1?
label 1

Decide: is the reported value of soluble fraction (log2) for HMGKRKDFTYTGNYFSEYKNQTFPSLSSFLKLVGKYENYGTIKRRVRFGWDIDEAILRENIN equal to or greater than -1?
label 0

Decide: is the reported value of soluble fraction (log2) for HMYVSGVPAITSIERVSTPGRRVYAGYTTVPKVIGGMGVSILTTSRGVMTDAEARRQKVGGELLAKV equal to or greater than -1?
label 1

Decide: is the reported value of soluble fraction (log2) for HMALTLDEARTQGRVGETFYGYLVALKTDAETEKLVNDINAERKASYQQLAKQNNVSVDDIAKLAGQKLV equal to or greater than -1?
label 1

Decide: is the reported value of soluble fraction (log2) for HMSADDSDDRKGIDAWLTQLLANGSVKATEVYSAADAAGYSKDQAKRAKRRLAIEAVREAMDGPWFWRLD equal to or greater than -1?
label 1

The reported numbers originate from the domain aggregation screens of Martell et al. (2025).
